# reported inhibition at 5 µM; entries follow
biological target: Nav1.6 (Homo sapiens); test: Nav 1.6 inhibition, IonWorks Quattro electrophysiology; format: cell-based; conditions: 5 μM; normalized to vehicle control (0%) and maximal inhibition control (100%)
Sequence (Q9UQD0 whole entry): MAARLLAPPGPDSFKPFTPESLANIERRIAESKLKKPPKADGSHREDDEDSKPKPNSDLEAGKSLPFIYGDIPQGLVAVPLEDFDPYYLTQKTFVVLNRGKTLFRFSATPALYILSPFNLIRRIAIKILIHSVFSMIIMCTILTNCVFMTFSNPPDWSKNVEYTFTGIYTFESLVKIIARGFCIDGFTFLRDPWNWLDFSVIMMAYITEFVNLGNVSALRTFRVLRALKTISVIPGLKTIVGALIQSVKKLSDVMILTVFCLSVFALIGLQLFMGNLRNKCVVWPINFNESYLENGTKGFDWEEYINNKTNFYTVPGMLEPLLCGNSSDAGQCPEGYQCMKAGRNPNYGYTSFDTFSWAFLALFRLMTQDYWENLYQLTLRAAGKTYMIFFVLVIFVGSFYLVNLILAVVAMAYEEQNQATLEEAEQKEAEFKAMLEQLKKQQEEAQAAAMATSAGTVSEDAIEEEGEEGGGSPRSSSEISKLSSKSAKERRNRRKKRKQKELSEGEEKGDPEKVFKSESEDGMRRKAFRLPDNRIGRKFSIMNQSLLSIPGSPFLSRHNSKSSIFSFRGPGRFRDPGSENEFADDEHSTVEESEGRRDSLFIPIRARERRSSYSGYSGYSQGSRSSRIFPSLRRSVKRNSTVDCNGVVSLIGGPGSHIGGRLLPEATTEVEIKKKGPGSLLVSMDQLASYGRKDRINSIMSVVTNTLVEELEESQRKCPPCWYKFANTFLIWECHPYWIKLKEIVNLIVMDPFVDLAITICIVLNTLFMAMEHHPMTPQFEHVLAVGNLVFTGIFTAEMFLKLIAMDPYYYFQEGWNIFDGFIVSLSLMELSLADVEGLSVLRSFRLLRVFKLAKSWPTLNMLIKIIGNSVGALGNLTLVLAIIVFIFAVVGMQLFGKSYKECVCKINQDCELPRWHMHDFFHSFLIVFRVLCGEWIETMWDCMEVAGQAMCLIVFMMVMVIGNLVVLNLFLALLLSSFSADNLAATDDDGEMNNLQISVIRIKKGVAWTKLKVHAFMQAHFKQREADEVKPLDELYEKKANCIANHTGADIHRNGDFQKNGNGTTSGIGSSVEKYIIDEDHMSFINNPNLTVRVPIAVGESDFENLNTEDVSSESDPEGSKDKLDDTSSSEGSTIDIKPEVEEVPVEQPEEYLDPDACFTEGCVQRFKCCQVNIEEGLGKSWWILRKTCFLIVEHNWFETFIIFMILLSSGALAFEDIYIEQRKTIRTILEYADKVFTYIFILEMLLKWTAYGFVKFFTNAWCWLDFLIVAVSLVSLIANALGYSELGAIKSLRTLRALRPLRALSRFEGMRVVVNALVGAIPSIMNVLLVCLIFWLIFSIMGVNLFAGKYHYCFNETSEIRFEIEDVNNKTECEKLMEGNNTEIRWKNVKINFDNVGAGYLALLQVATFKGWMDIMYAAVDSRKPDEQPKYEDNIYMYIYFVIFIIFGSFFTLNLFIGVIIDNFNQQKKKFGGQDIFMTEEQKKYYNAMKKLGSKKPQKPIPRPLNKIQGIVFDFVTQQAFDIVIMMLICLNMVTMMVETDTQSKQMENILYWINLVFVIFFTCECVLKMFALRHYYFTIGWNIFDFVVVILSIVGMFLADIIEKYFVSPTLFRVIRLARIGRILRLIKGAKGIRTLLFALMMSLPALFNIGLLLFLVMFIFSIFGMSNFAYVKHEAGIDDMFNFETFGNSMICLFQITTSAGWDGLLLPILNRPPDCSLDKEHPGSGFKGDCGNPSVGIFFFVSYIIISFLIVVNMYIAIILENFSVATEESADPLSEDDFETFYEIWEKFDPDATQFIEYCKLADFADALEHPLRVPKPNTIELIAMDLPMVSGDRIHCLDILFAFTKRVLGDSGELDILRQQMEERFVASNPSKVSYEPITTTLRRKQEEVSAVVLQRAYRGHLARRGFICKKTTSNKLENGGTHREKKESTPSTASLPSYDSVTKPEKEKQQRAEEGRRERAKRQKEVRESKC
The answer is to be given in %; state only the numeric part.

Use these answered entries as a reference point.
For the compound shown here, CNC(=O)C1CN(Cc2ccc(Oc3ccc(F)cc3)nc2)CCO1 (centres unmarked) [Example 14] , give the reported inhibition at 5 µM.
0.4

Consider the compound shown here: CNC(=O)[C@@H]1CN(Cc2ccc(Oc3ccc(C)cc3)nc2)CCO1 [Example 29] What is its recorded inhibition at 5 µM?
3

Entry CNC(=O)C1CN(Cc2ccc(Oc3ccc(C)cc3F)nc2)CCO1 (centres unmarked) [Example 12] : reported inhibition at 5 µM = ?
10.2

# input compound: COCCNC(=O)C1CN(Cc2cccc(Oc3ccccc3)c2)CCO1 (centres unmarked) [Example 107 of WO2015/130905, reference compound] ; wanted: its inhibition at 5 µM
13.1

// query inhibition at 5 µM value for entry CNC(=O)[C@@H]1CN(Cc2ccc(Oc3ccccc3Cl)nc2)CCO1 [Example 17]
-4.3

***
Given CNC(=O)C1CN(Cc2ccc(Oc3ccc(Cl)cc3F)nc2)CCO1 (centres unmarked) [Example 15] , state its recorded inhibition at 5 µM.
-1.4
